Reported Ratio to Control values are given for each entry in this list.
target: MK2 (Homo sapiens, UniProt P49137); construct: endogenous in cells; host or cells: Malme-3M; assay: ELISA MK2 cell-based activity assay (phospho-HSP-27), Malme-3M cells; details: Malme-3M cells, compound 20 μM, 30 minutes, 37° C.
Sequence (P49137 whole entry): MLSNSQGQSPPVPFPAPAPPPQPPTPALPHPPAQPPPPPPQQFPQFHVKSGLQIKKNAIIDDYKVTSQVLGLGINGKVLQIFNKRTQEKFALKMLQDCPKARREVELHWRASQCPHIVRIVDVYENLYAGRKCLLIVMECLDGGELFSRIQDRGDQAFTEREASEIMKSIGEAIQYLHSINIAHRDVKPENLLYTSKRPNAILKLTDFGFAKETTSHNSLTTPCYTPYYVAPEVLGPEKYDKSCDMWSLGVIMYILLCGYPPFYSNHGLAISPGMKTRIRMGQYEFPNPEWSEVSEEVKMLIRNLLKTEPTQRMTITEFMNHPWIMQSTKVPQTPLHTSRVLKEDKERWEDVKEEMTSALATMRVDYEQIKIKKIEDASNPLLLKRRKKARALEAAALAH

Prompt line: So what does the record say about Ratio to Control for Nc1ccccc1NC(=O)c1ccc(CNc2nccc(-c3cccnc3)n2)cc1 ?
Response line: 0.9

Prompt line: So what does the record say about Ratio to Control for COc1ccc(-c2cc(C(F)F)nn2-c2ccc(S(N)(=O)=O)cc2)cc1F ?
Response line: 1.2

Prompt line: So what does the record say about Ratio to Control for OC[C@@H](O)CN1CCN(c2ccccc2)CC1 ?
Response line: 27.6

Prompt line: So what does the record say about Ratio to Control for O=C(O)CCn1c2c(c3ccccc31)C[C@H](NS(=O)(=O)c1ccc(F)cc1)CC2 ?
Response line: 1.5

Prompt line: So what does the record say about Ratio to Control for FC(F)(F)c1ccc(/C=C/c2nc(COc3ccc(CCCCn4ccnn4)cc3)co2)cc1 ?
Response line: 1.6

Prompt line: So what does the record say about Ratio to Control for Fc1ccccc1-c1nc2ccn(Cc3ccc(-c4ccc(C(F)(F)F)cc4C(F)(F)F)nn3)cc-2n1 ?
Response line: 0.9

Prompt line: So what does the record say about Ratio to Control for Cc1cc(C(=O)Nc2cc(Nc3ccc4c(/C=C/c5ccccn5)n[nH]c4c3)ccc2F)n(C)n1 ?
Response line: 0.7

----------
biological target: MK2 (Rattus norvegicus, UniProt Q80ZF4); construct: endogenous in cells; host or cells: rat microvascular endothelial cells (RMVEC); assay: ELISA MK2 cell-based activity assay (phospho-HSP-27), RMVEC cells; conditions: compound 20 μM, 30 minutes, 37° C.
Sequence (Q80ZF4 1-386): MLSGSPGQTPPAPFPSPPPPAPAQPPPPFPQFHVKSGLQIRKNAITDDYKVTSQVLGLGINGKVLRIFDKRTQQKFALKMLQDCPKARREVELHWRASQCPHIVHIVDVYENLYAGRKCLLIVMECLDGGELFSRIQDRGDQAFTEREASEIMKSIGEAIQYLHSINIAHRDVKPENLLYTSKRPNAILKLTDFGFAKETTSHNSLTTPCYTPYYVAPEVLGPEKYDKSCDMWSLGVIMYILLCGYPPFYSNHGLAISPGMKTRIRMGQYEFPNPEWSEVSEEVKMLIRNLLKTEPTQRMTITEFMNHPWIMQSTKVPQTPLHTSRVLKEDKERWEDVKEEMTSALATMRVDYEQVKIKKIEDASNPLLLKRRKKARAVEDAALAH
Ratio Compound/control vs 0.3: at or above is label 1, below is label 0.

Some entries whose results are on file:
Cc1nc2ccc(CN(C)c3ccc(C(=O)N[C@@H](CCC(=O)O)C(=O)O)s3)cc2c(=O)[nH]1 :: label 1
CCn1cc(-c2ccnc3[nH]c(-c4cccc(CN(C)C)c4)cc23)c(-c2ccc(NC(=O)N(C)C)cc2)n1 :: label 0
Cc1oncc1C(=O)Nc1ccc(C(F)(F)F)cc1 [Compound 72, Leflunomide] :: label 1
CCc1cc(/C(C)=N/OCc2ccc(C3CCCCC3)c(C(F)(F)F)c2)ccc1CN1CC(C(=O)O)C1 :: label 1
Cc1cn(-c2cc(NC(=O)c3ccc(C)c(Nc4nccc(-c5cnccn5)n4)c3)cc(C(F)(F)F)c2)cn1 :: label 1

// switching to the query compound
Prompt line: API: above_or_equal(metric=Ratio Compound/control, cutoff=0.3) for item OCC(O)CN1CCN(c2ccccc2)CC1 (stereo not shown)
Response line: label 0

----------
molecular target: MK2 (Rattus norvegicus); construct: endogenous in cells; host or cells: rat microvascular endothelial cells (RMVEC); assay: ELISA MK2 cell-based activity assay (phospho-HSP-27), RMVEC cells; settings: compound 20 μM, 30 minutes, 37° C.
Where a name gives a salt, the structure may show the parent alone.
endpoint-name: Ratio Compound/control
# output: bare number, no unit

Take a look at these entries with their results.
Fc1ccccc1-c1nc2ccn(Cc3ccc(-c4ccc(C(F)(F)F)cc4C(F)(F)F)nn3)cc-2n1 :: 1.2
Cc1cc(Nc2cc(N3CCN(C)CC3)nc(/C=C/c3ccccc3)n2)n[nH]1 :: 0.3
Cc1nc2n(c(=O)c1CCN1CCC(c3noc4cc(F)ccc34)CC1)CCCC2O (stereo not shown) :: 1.1
N=C(N)c1ccc2cc(OC(=O)c3ccc(N=C(N)N)cc3)ccc2c1 [Nafamostat Mesylate] :: 1.3
O=C(NC1CCN(CCCCC2(C(=O)NCC(F)(F)F)c3ccccc3-c3ccccc32)CC1)c1ccccc1-c1ccc(C(F)(F)F)cc1 [Compound 68, Lomitapide] :: 3.4

Prompt line: So what does the record say about Ratio Compound/control for COc1cc2ncnc(Oc3cccc(NC(=O)Nc4cc(C(C)(C)C(F)(F)F)on4)c3)c2cc1OC ?
Response line: 0.9

Prompt line: So what does the record say about Ratio Compound/control for O=C1[C@H]2CCCC[C@H]2C(=O)N1CCCCN1CCN(c2nsc3ccccc23)CC1 [Perospirone hydrochloride] ?
Response line: 2.2

----------
Molecular target: MK2 (Rattus norvegicus, UniProt Q80ZF4)
Construct: endogenous in cells; host or cells: rat microvascular endothelial cells (RMVEC)
Experiment: ELISA MK2 cell-based activity assay (phospho-HSP-27), RMVEC cells
Details: compound 20 μM, 30 minutes, 37° C.
Method: The MK2 activator candidates, identified using the artificial intelligence (AI)-assisted docking approach, were tested in activity assays for lead selection against the MK2 target. MK2 activation was assessed using (a) a cell-based assay using rat microvascular endothelial cells (RMVEC) and (b) human cancer skin fibroblast cells (Malme-3M). […] Higher activity compounds, acting on MK2, induced higher levels of HSP-27 phosphorylation, as measured by the ELISA.
Structures can show the parent of a compound that is named as a salt.
Reported Ratio Compound/control values are given for each entry in this list.
# output: bare number, no unit

Take a look at these entries with their results.
CNCc1ccc(C)c(NC(=O)c2ccc(Nc3nc(-c4ccccc4)c4ccccc4n3)cc2)c1 :: 1.3
c1cc(OCCN2CCCCC2)cc(-c2n[nH]c3ccc(-c4nc[nH]n4)cc23)c1 [CC-401 Hydrochloride] :: 0.9
C=CCn1c(=O)c2cnc(Nc3ccc(N4CCN(C)CC4)cc3)nc2n1-c1cccc(C(C)(C)O)n1 :: 0.9
O=C1Cc2cc(CCN3CCN(c4nsc5ccccc45)CC3)c(Cl)cc2N1 [Ziprasidone HCl] :: 1.5

Prompt line: Look up Ratio Compound/control with MK2 (Rattus norvegicus, UniProt Q80ZF4) for this molecule: Cn1c(Nc2ccc(C(F)(F)F)cc2)nc2cc(Oc3ccnc(-c4ncc(C(F)(F)F)[nH]4)c3)ccc21
Response line: 0.9

Prompt line: Look up Ratio Compound/control with MK2 (Rattus norvegicus, UniProt Q80ZF4) for this molecule: Cc1c(NC(=O)OC[C@@H]2COCCN2)cn2ncnc(Nc3ccc4c(cnn4Cc4cccc(F)c4)c3)c12
Response line: 1.3

Prompt line: Look up Ratio Compound/control with MK2 (Rattus norvegicus, UniProt Q80ZF4) for this molecule: C[C@@H](Oc1cc(-n2cnc3ccc(CN4CCN(C)CC4)cc32)sc1C(N)=O)c1ccccc1C(F)(F)F
Response line: 1.8

----------
Target: MK2 (Rattus norvegicus, UniProt Q80ZF4)
Construct: endogenous in cells; host or cells: rat microvascular endothelial cells (RMVEC)
Experiment: ELISA MK2 cell-based activity assay (phospho-HSP-27), RMVEC cells
Details: compound 20 μM, 30 minutes, 37° C., phospho-HSP27 ELISA
Experimental: The MK2 activator candidates, identified using the artificial intelligence (AI)-assisted docking approach, were tested in activity assays for lead selection against the MK2 target. MK2 activation was assessed using (a) a cell-based assay using rat microvascular endothelial cells (RMVEC) and (b) human cancer skin fibroblast cells (Malme-3M). […] Higher activity compounds, acting on MK2, induced higher levels of HSP-27 phosphorylation, as measured by the ELISA.
Structures can show the parent of a compound that is named as a salt.
Reported Average Response HSP27 values are given for each entry in this list.
Your answer should be a number followed by the unit of measure.

O=C(NC1CCN(CCCCC2(C(=O)NCC(F)(F)F)c3ccccc3-c3ccccc32)CC1)c1ccccc1-c1ccc(C(F)(F)F)cc1 [Compound 68, Lomitapide] :: 39.2 pg/mL
Cc1nc2ccc(CN(C)c3ccc(C(=O)N[C@@H](CCC(=O)O)C(=O)O)s3)cc2c(=O)[nH]1 :: 25.4 pg/mL
CCN1CCN(Cc2ccc(NC(=O)Nc3ccc(Oc4cc(NC)ncn4)cc3)cc2C(F)(F)F)CC1 :: 9.0 pg/mL
Nc1ccccc1NC(=O)c1ccc(CNc2nccc(-c3cccnc3)n2)cc1 :: 17.8 pg/mL
N=C(N)c1ccc2cc(OC(=O)c3ccc(N=C(N)N)cc3)ccc2c1 [Nafamostat Mesylate] :: 11.7 pg/mL

Prompt line: So what does the record say about Average Response HSP27 for Cc1nc(Nc2[nH]nc3c2CN(C(=O)N[C@H](CN(C)C)c2ccccc2)C3(C)C)c2sccc2n1 ?
Response line: 4.8 pg/mL

Prompt line: So what does the record say about Average Response HSP27 for C[C@@H](Oc1cc(-n2cnc3ccc(CN4CCN(C)CC4)cc32)sc1C(N)=O)c1ccccc1C(F)(F)F ?
Response line: 39.0 pg/mL

----------
target: MK2 (Homo sapiens); construct: endogenous in cells; host or cells: Malme-3M; assay: ELISA MK2 cell-based activity assay (phospho-HSP-27), Malme-3M cells; settings: Malme-3M cells, compound 20 μM, 30 minutes, 37° C., phospho-HSP27 ELISA
endpoint-name: Pho-HSP27 (pg/mL)
State the answer as a number, implicitly in pg/mL.

Take a look at these entries with their results.
Cc1nc2ccc(CN(C)c3ccc(C(=O)N[C@@H](CCC(=O)O)C(=O)O)s3)cc2c(=O)[nH]1 [Compound 41, Raltitrexed] :: 38.7
Fc1ccccc1-c1nc2ccn(Cc3ccc(-c4ccc(C(F)(F)F)cc4C(F)(F)F)nn3)cc-2n1 [Compound 66, Tegobuvir] :: 20.9
C=CCn1c(=O)c2cnc(Nc3ccc(N4CCN(C)CC4)cc3)nc2n1-c1cccc(C(C)(C)O)n1 [Compound 36, Azd-1775] :: 15.7
Cc1cn(-c2cc(NC(=O)c3ccc(C)c(Nc4nccc(-c5cnccn5)n4)c3)cc(C(F)(F)F)c2)cn1 [Compound 52, Radotinib] :: 20.8
CC(C)Nc1cccnc1N1CCN(C(=O)c2cc3cc(NS(C)(=O)=O)ccc3[nH]2)CC1 [Compound 108, Delavirdine] :: 17.3

Prompt line: So what does the record say about Pho-HSP27 for COc1ccc(-c2ccc3ncc4c(c3c2)n(-c2ccc(N3CCNCC3)c(C(F)(F)F)c2)c(=O)n4C)cn1 [Compound 14, Bgt-226] ?
Response line: 26.9

Prompt line: So what does the record say about Pho-HSP27 for FC(F)(F)c1ccc(/C=C/c2nc(COc3ccc(CCCCn4ccnn4)cc3)co2)cc1 [Compound 37, Mubritinib] ?
Response line: 36.8

Prompt line: So what does the record say about Pho-HSP27 for Nc1ccccc1NC(=O)c1ccc(CNc2nccc(-c3cccnc3)n2)cc1 [Compound 38, Mocetinostat] ?
Response line: 21.2
